The compounds listed here are annotated with their MIC.
Test system: Candida tropicalis
Assay: Antifungal activity against Candida tropicalis IFO 1400 after 48 hrs by broth microdilution method
Type: functional
Conditions: IFO 1400, 48 h
Starred links: 1 amine or outer side, 2 acyl side, 3 side chain; linkers in the order of their positions; H or OH if unused. Positions of bridges follow the written chain, without caps; N, C: chain ends. Non-standard residues stand in square brackets, D forms with d. Residues, ends and D or L forms follow the SMILES beside them. *: point of attachment. hTyr(3S-OH,4S-OH,3'-OSO3H) = N[C@H](C(=O)O)[C@H](O)[C@@H](O)c1ccc(O)c(OS(=O)(=O)O)c1; Orn(4R-OH,5R-OH) = O=C([C@H](C[C@@H](O)[C@@H](O)N[*:3])N[*:1])[*:2]; Pro(3S-OH,4S-Me) = C[C@H]1CN[C@H](C(=O)O)[C@H]1O; X1 = CCCCCOc1ccc(-c2cc(-c3ccc(C(=O)*)cc3)no2)cc1; Gln(3R-OH) = NC(=O)C[C@@H](O)[C@H](N)C(=O)O; Hyp = O=C(O)[C@@H]1C[C@@H](O)CN1
Quantity kind: MIC (mg/L)

| Compound | Value observed |
| --- | --- |
| N=C(N)c1ccc(OCCCC2CCN(CCCOc3ccc(C(=N)N)cc3)CC2)cc1 | 0.0005 |
| CCCCCOc1ccc(-c2cc(-c3ccc(C(=O)N[C@H]4C[C@@H](O)[C@@H](O)NC(=O)[C@@H]5[C@@H](O)[C@@H](C)CN5C(=O)[C@H]([C@H](O)CC(N)=O)NC(=O)[C@H]([C@H](O)[C@@H](O)c5ccc(O)c(OS(=O)(=O)O)c5)NC(=O)[C@@H]5C[C@@H](O)CN5C(=O)[C@H]([C@@H](C)O)NC4=O)cc3)no2)cc1 [MICAFUNGIN] (X1-[Orn(4R-OH,5R-OH)]T[Hyp][hTyr(3S-OH,4S-OH,3'-OSO3H)][Gln(3R-OH)][Pro(3S-OH,4S-Me)]; lactam 1-C) | 0.0625 |
| C[C@@H](c1ncncc1F)[C@](O)(Cn1cncn1)c1ccc(F)cc1F | 0.0625 |
| OC(Cn1cncn1)(Cn1cncn1)c1ccc(F)cc1F | 2 |
| C[C@@H]1[C@H](O)[C@@H](C)/C=C/C=C/C=C/C=C/C=C/C=C/C=C/[C@H](O[C@@H]2O[C@H](C)[C@@H](O)[C@H](N)[C@@H]2O)C[C@@H]2O[C@](O)(C[C@@H](O)C[C@@H](O)[C@H](O)CC[C@@H](O)C[C@@H](O)CC(=O)O[C@H]1C)C[C@H](O)[C@H]2C(=O)O | 1 |

* * *

Test system: Meyerozyma guilliermondii
Test: Antifungal activity against Candida guilliermondii clinical isolates after 48 hrs by broth microdilution method
Format: functional
Starred links: 1 amine or outer side, 2 acyl side, 3 side chain; linkers in the order of their positions; H or OH if unused. Positions of bridges follow the written chain, without caps; N, C: chain ends. Non-standard residues stand in square brackets, D forms with d. Residues, ends and D or L forms follow the SMILES beside them. *: point of attachment. hTyr(3S-OH,4S-OH,3'-OSO3H) = N[C@H](C(=O)O)[C@H](O)[C@@H](O)c1ccc(O)c(OS(=O)(=O)O)c1; Orn(4R-OH,5R-OH) = O=C([C@H](C[C@@H](O)[C@@H](O)N[*:3])N[*:1])[*:2]; Pro(3S-OH,4S-Me) = C[C@H]1CN[C@H](C(=O)O)[C@H]1O; X1 = CCCCCOc1ccc(-c2cc(-c3ccc(C(=O)*)cc3)no2)cc1; Gln(3R-OH) = NC(=O)C[C@@H](O)[C@H](N)C(=O)O; Hyp = O=C(O)[C@@H]1C[C@@H](O)CN1

| Compound | Units label | MIC90 |
| --- | --- | --- |
| C[C@@H]1[C@H](O)[C@@H](C)/C=C/C=C/C=C/C=C/C=C/C=C/C=C/[C@H](O[C@@H]2O[C@H](C)[C@@H](O)[C@H](N)[C@@H]2O)C[C@@H]2O[C@](O)(C[C@@H](O)C[C@@H](O)[C@H](O)CC[C@@H](O)C[C@@H](O)CC(=O)O[C@H]1C)C[C@H](O)[C@H]2C(=O)O | µg/mL | 1 |
| CCCCCOc1ccc(-c2cc(-c3ccc(C(=O)N[C@H]4C[C@@H](O)[C@@H](O)NC(=O)[C@@H]5[C@@H](O)[C@@H](C)CN5C(=O)[C@H]([C@H](O)CC(N)=O)NC(=O)[C@H]([C@H](O)[C@@H](O)c5ccc(O)c(OS(=O)(=O)O)c5)NC(=O)[C@@H]5C[C@@H](O)CN5C(=O)[C@H]([C@@H](C)O)NC4=O)cc3)no2)cc1 [MICAFUNGIN] (X1-[Orn(4R-OH,5R-OH)]T[Hyp][hTyr(3S-OH,4S-OH,3'-OSO3H)][Gln(3R-OH)][Pro(3S-OH,4S-Me)]; lactam 1-C) | µg/mL | 1 |
| N=C(N)c1ccc(OCCCC2CCN(CCCOc3ccc(C(=N)N)cc3)CC2)cc1 | µg/mL | 0.0039 |
| OC(Cn1cncn1)(Cn1cncn1)c1ccc(F)cc1F | µg/mL | 8 |
| C[C@@H](c1ncncc1F)[C@](O)(Cn1cncn1)c1ccc(F)cc1F | µg/mL | 0.125 |

* * *

Tested on: Rhizopus arrhizus
Test: Antifungal activity against Rhizopus oryzae NBRC 31005 after 24 hrs by broth microdilution method
Format: functional
Settings: NBRC 31005, 24 h
Starred links: 1 amine or outer side, 2 acyl side, 3 side chain; linkers in the order of their positions; H or OH if unused. Positions of bridges follow the written chain, without caps; N, C: chain ends. Non-standard residues stand in square brackets, D forms with d. Residues, ends and D or L forms follow the SMILES beside them. *: point of attachment. hTyr(3S-OH,4S-OH,3'-OSO3H) = N[C@H](C(=O)O)[C@H](O)[C@@H](O)c1ccc(O)c(OS(=O)(=O)O)c1; Orn(4R-OH,5R-OH) = O=C([C@H](C[C@@H](O)[C@@H](O)N[*:3])N[*:1])[*:2]; Pro(3S-OH,4S-Me) = C[C@H]1CN[C@H](C(=O)O)[C@H]1O; X1 = CCCCCOc1ccc(-c2cc(-c3ccc(C(=O)*)cc3)no2)cc1; Gln(3R-OH) = NC(=O)C[C@@H](O)[C@H](N)C(=O)O; Hyp = O=C(O)[C@@H]1C[C@@H](O)CN1
# maps each entry to its MFC

| Molecule | MFC |
| --- | --- |
| N=C(N)c1ccc(OCCCC2CCN(CCCOc3ccc(C(=N)N)cc3)CC2)cc1 | > 64 µg/mL |
| CCCCCOc1ccc(-c2cc(-c3ccc(C(=O)N[C@H]4C[C@@H](O)[C@@H](O)NC(=O)[C@@H]5[C@@H](O)[C@@H](C)CN5C(=O)[C@H]([C@H](O)CC(N)=O)NC(=O)[C@H]([C@H](O)[C@@H](O)c5ccc(O)c(OS(=O)(=O)O)c5)NC(=O)[C@@H]5C[C@@H](O)CN5C(=O)[C@H]([C@@H](C)O)NC4=O)cc3)no2)cc1 [MICAFUNGIN] (X1-[Orn(4R-OH,5R-OH)]T[Hyp][hTyr(3S-OH,4S-OH,3'-OSO3H)][Gln(3R-OH)][Pro(3S-OH,4S-Me)]; lactam 1-C) | > 64 µg/mL |
| OC(Cn1cncn1)(Cn1cncn1)c1ccc(F)cc1F [FLUCONAZOLE] | > 64 µg/mL |
| C[C@@H]1[C@H](O)[C@@H](C)/C=C/C=C/C=C/C=C/C=C/C=C/C=C/[C@H](O[C@@H]2O[C@H](C)[C@@H](O)[C@H](N)[C@@H]2O)C[C@@H]2O[C@](O)(C[C@@H](O)C[C@@H](O)[C@H](O)CC[C@@H](O)C[C@@H](O)CC(=O)O[C@H]1C)C[C@H](O)[C@H]2C(=O)O [AMPHOTERICIN B] | 1 µg/mL |
| C[C@@H](c1ncncc1F)[C@](O)(Cn1cncn1)c1ccc(F)cc1F [VORICONAZOLE] | 32 µg/mL |

* * *

Overview of reported MIC across a group of molecules:
Test system: Candida albicans
Test: Antifungal activity against Candida albicans ATCC 10261 after 48 hrs by broth microdilution method
Type: functional
Settings: ATCC 10261, 48 h
Starred links: 1 amine or outer side, 2 acyl side, 3 side chain; linkers in the order of their positions; H or OH if unused. Positions of bridges follow the written chain, without caps; N, C: chain ends. Non-standard residues stand in square brackets, D forms with d. Residues, ends and D or L forms follow the SMILES beside them. *: point of attachment. hTyr(3S-OH,4S-OH,3'-OSO3H) = N[C@H](C(=O)O)[C@H](O)[C@@H](O)c1ccc(O)c(OS(=O)(=O)O)c1; Orn(4R-OH,5R-OH) = O=C([C@H](C[C@@H](O)[C@@H](O)N[*:3])N[*:1])[*:2]; Pro(3S-OH,4S-Me) = C[C@H]1CN[C@H](C(=O)O)[C@H]1O; X1 = CCCCCOc1ccc(-c2cc(-c3ccc(C(=O)*)cc3)no2)cc1; Gln(3R-OH) = NC(=O)C[C@@H](O)[C@H](N)C(=O)O; Hyp = O=C(O)[C@@H]1C[C@@H](O)CN1
Quantity kind: MIC (µg/mL)

| Molecule | Target of assay | Quantity kind | Value observed |
| --- | --- | --- | --- |
| N=C(N)c1ccc(OCCCC2CCN(CCCOc3ccc(C(=N)N)cc3)CC2)cc1 | Candida albicans | MIC | 0.001 |
| CCCCCOc1ccc(-c2cc(-c3ccc(C(=O)N[C@H]4C[C@@H](O)[C@@H](O)NC(=O)[C@@H]5[C@@H](O)[C@@H](C)CN5C(=O)[C@H]([C@H](O)CC(N)=O)NC(=O)[C@H]([C@H](O)[C@@H](O)c5ccc(O)c(OS(=O)(=O)O)c5)NC(=O)[C@@H]5C[C@@H](O)CN5C(=O)[C@H]([C@@H](C)O)NC4=O)cc3)no2)cc1 [MICAFUNGIN] (X1-[Orn(4R-OH,5R-OH)]T[Hyp][hTyr(3S-OH,4S-OH,3'-OSO3H)][Gln(3R-OH)][Pro(3S-OH,4S-Me)]; lactam 1-C) | Candida albicans | MIC | 0.0313 |

Data credit: ChEMBL document CHEMBL1255303
